So I've got a bunch of compounds here, and I need their TGI values.
- System: DMS 273 small cell lung
- EXPERIMENT DESCRIPTION: NCI tumour cell line growth inhibition, 48 h

Exam item: I'd like to know its TGI. The compound in question is CCCCC(C(=O)C(=O)Nc1ccc(C)cc1C)C(=O)C(C)C (stereo not drawn)
Marked response: > 100 µM

Exam item: Recorded TGI for CC1CC(C[N+](=O)[O-])CC2(C1)OCCO2 (stereo not drawn) , please?
Marked response: > 100 µM

Exam item: Recorded TGI for O=C1c2c(O)cccc2C(C(=O)CCCCCC(=O)C2c3cccc(O)c3C(=O)c3c(O)cccc32)c2cccc(O)c21 , please?
Marked response: 13.3 µM

Exam item: Return reported TGI; argument: NC1=NN(c2ccccc2)C(=O)C1C(=O)C(=O)Nc1ccc(Cl)cc1 (stereo not drawn)
Marked response: > 100 µM

Exam item: Recorded TGI for N#CCCN(CCC#N)c1ccc(/C=C(/NC(=O)c2cc([N+](=O)[O-])ccc2Cl)C(=O)N=[N+]=[N-])cc1 , please?
Marked response: > 100 µM

Exam item: Entry C/C(NNC(=O)c1ccccc1O)=C1\C=Nc2ccccc2S1 has what TGI?
Marked response: > 100 µM

Exam item: If you can, please state the reported TGI value of COC1(OC)CC2C(=O)N(Cc3ccccc3)C1C(S(=O)(=O)c1ccccc1)C2C(C)S(=O)(=O)c1ccccc1 (stereo not drawn) .
Marked response: > 100 µM

Exam item: Endpoint output: TGI of O=C(NCCCCCCCCCCCCNC(=O)c1cnc2ccccc2n1)c1cnc2ccccc2n1 . Value?
Marked response: > 100 µM

Exam item: What TGI value was documented for this compound, CC(=O)Nc1ccccc1-c1nc2ccccc2nc1-c1ccccc1 ?
Marked response: > 100 µM

Exam item: Recorded TGI of N#C/C(=C\c1ccc(O)c(O)c1)c1c(C#N)c(N)nn1-c1ccccc1 , please.
Marked response: 18.5 µM

Exam item: Quick one: TGI for Cc1ccccc1NC(=O)CC1C(=O)Nc2ccccc2S1=O (stereo not drawn) ?
Marked response: > 100 µM

Exam item: I am curious: what TGI value has been reported for NC(CCSCC(F)(F)F)C(=O)O (stereo not drawn) ?
Marked response: > 100 µM

Exam item: So what's the measured TGI for this one? CCC(=O)OC1CCn2c1nc1c2C(=O)C(C)=C(NC(C)=O)C1=O (stereo not drawn)
Marked response: 3.37 µM

Exam item: Bench note: what TGI did COc1cccc(/C=N/[N-]C(=O)c2ccncc2)c1[O-].[Mn+2].[OH3+] show?
Marked response: 73.5 µM

Exam item: Could you share which TGI value was measured for O=C(Nc1ccccc1[N+](=O)[O-])/C(=N/Nc1cccc(Cl)c1)c1c(O)c2ccccc2oc1=O ?
Marked response: > 100 µM

Exam item: Given Cc1cc(=O)oc2c(C3=NN(C=O)C(c4ccccc4)C3)c(O)ccc12 (stereo not drawn) , state its recorded TGI.
Marked response: > 100 µM

Exam item: What value of measured TGI is listed for CC1CC(=O)Nc2ccc(Cl)cc2N1C(=O)CN1CCC(CCCCN(C)C)CC1 (stereo not drawn) ?
Marked response: > 100 µM

Exam item: Sample Cc1ccc(S(=O)(=O)NC(=O)C2S(=O)(=O)OCCOS2(=O)=O)cc1 — what was its TGI?
Marked response: > 100 µM
